Where do the numbers come from? From ChEMBL document CHEMBL1140637.

assayed-system: Matrix metalloproteinase-9 (Homo sapiens) (UniProt P14780)
Sequence (P14780 whole entry): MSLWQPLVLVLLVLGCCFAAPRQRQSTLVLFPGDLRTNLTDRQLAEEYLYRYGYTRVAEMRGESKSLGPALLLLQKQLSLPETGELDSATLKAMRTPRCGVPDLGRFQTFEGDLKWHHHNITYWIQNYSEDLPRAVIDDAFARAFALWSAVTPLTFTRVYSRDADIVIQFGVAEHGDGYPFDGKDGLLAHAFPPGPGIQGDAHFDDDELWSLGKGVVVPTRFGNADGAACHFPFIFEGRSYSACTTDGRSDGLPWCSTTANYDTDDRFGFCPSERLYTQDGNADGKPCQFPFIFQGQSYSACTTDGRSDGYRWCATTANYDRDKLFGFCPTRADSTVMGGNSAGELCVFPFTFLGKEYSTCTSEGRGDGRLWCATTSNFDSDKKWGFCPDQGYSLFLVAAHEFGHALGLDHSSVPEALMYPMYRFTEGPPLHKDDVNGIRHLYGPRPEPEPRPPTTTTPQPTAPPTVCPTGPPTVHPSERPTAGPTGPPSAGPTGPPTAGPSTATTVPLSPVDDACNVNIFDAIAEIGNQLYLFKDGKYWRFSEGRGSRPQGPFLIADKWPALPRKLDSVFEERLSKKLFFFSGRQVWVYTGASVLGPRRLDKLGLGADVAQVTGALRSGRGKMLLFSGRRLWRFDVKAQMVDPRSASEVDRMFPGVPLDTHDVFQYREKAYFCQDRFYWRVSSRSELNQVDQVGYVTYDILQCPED
experiment-description: Inhibition of MMP9
measured-property: log(10^6/IC50)

Below, 7 compounds whose answers are already recorded.
- C=C(C)[C@@](C)(C(=O)NO)S(=O)(=O)c1ccc(OC)cc1: 4.96
- COc1ccc(S(=O)(=O)C2(C(=O)NO)CCN(Cc3ccc(-c4cccs4)cc3)CC2)cc1: 4.96
- COc1ccc(S(=O)(=O)C(C)(Cc2ccc(-c3ccccc3)cc2)C(=O)NO)cc1 (centres undefined): 4.64
- COc1ccc(S(=O)(=O)C2(C(=O)NO)CCN(Cc3ccc4ccccc4c3)CC2)cc1: 5.3
- CCN(CC)CCOc1ccc(CC(C)(C(=O)NO)S(=O)(=O)c2ccc(OC)cc2)cc1 (single isomer, unassigned): 4.89
- O=C(NO)C1(S(=O)(=O)c2ccc(Oc3ccc(Cl)cc3)cc2)CCN(Cc2ccccc2)CC1: 6
- COc1ccc(S(=O)(=O)C2(C(=O)NO)CCN(Cc3cccc(OC)c3)CC2)cc1: 5.05

[A] COc1ccc(S(=O)(=O)C2(C(=O)NO)CCN(Cc3ccc(OCCN4CCCCC4)cc3)CC2)cc1
[B] COc1ccc(S(=O)(=O)C2(C(=O)NO)CCN(C(C)(C)C)CC2)cc1
Min log(10^6/IC50)? A | B API: response body contains the label of the selected item.
B
(B: 3.19, A: 5.52)

====

assayed-system: Matrix metalloproteinase-9 (Homo sapiens) (UniProt P14780)
experiment-description: Inhibition of MMP9
measured-property: log(10^6/IC50)

* COc1ccc(S(=O)(=O)C2(C(=O)NO)CCN(Cc3ccc(-c4ccccc4)cc3)CC2)cc1 | 4.89

[P] COc1ccc(S(=O)(=O)[C@@](C)(CC2CCCCC2)C(=O)NO)cc1
[Q] COc1ccc(S(=O)(=O)C2(C(=O)NO)CCN(C(C)C)CC2)cc1
Pick one: P or Q . Which has the bigger log(10^6/IC50) number? API: response body contains the label of the selected item.
P

====

assayed-system: Matrix metalloproteinase-9 (Homo sapiens)
experiment-description: Inhibition of MMP9
measured-property: log(10^6/IC50)

• CCCCOc1ccc(S(=O)(=O)C2(C(=O)NO)CCN(Cc3ccc(OCCN4CCCCC4)cc3)CC2)cc1 = 5.7
• CCCCN1CCC(C(=O)NO)(S(=O)(=O)c2ccc(Oc3ccc(Cl)cc3)cc2)CC1 = 6
• C=C(C)N1CCC(C(=O)NO)(S(=O)(=O)c2ccc(OC)cc2)CC1 = 4.41
• COc1ccc(S(=O)(=O)C2(C(=O)NO)CCN(CCCOc3ccccc3)CC2)cc1 = 4.36
• COc1ccc(S(=O)(=O)[C@](C)(Cc2ccc(OCCN3CCCCC3)cc2)C(=O)NO)cc1 = 5.05

====

Below are molecules with their log(10^6/IC50) as measured on Collagenase 3 (Homo sapiens) (UniProt P45452).
measured-property: log(10^6/IC50)

• COc1ccc(S(=O)(=O)C2(C(=O)NO)CCN(Cc3ccc(OCCN4CCCCC4)cc3)CC2)cc1 = 5.52
• COc1ccc(S(=O)(=O)[C@](C)(Cc2ccc(OCCCN3CCN(c4cccc(Cl)c4)CC3)cc2)C(=O)NO)cc1 = 5.4
• CCN(CC)CCOc1ccc(C[C@](C)(C(=O)NO)S(=O)(=O)c2ccc(-c3ccco3)cc2)cc1 = 5.7
• CCCCN1CCC(C(=O)NO)(S(=O)(=O)c2ccc(Oc3ccc(Cl)cc3)cc2)CC1 = 6
